# Tested on: Mycobacterium tuberculosis
# EXPERIMENT_NOTES: Cornell M. t heat shock assay; note: in the data most compounds retested in dose-response had high values
# Type: functional, organism-based
# Set-up: dose or concentration left out as unconfirmed
The campaign covered roughly 69,000 compounds. About 950 (1.4%) showed an effect of 50% or more. The sample holds strong results, similar compounds and a random draw of the others, so the mix is not that of the screen.
MEASURED_PROPERTY: Percent Effect

{"COMPOUND": "CC1CN(CC2CCCC2)CCN1c1ccc2nncn2n1 (stereo unspecified)", "DATA_VALUE": "85.93%"}
{"COMPOUND": "CC1CN(Cc2nccn2C)CCN1c1ccc2nncn2n1 (stereo unspecified)", "DATA_VALUE": "-15.38%"}
{"COMPOUND": "O=C(CCN1CCN(c2ccc3nncn3n2)CC1)N1CCCCC1", "DATA_VALUE": "-7.972%"}
{"COMPOUND": "COCCN1CCOCC2(C1)CN(C(=O)c1conc1C)CCO2.O=C(O)C(F)(F)F (stereo unspecified)", "DATA_VALUE": "15.5%"}
{"COMPOUND": "CNC[C@H]1CC[C@H](c2cc(CN(C)S(=O)(=O)N(C)C)n(C)n2)CC1.Cl", "DATA_VALUE": "-16.56%"}
{"COMPOUND": "O=C(CN1CCN(c2ccc3nncn3n2)CC1)NC1CCCC1", "DATA_VALUE": "59.84%"}
{"COMPOUND": "O=C(CCN1CCN(c2ccc3nncn3n2)CC1)NC1CCCC1", "DATA_VALUE": "-7.134%"}
{"COMPOUND": "CC1CN(CC(=O)N2CCCC2)CCN1c1ccc2nncn2n1 (stereo unspecified)", "DATA_VALUE": "15.46%"}
{"COMPOUND": "CCOCC1CN(c2ccncn2)Cc2cnn(CC3CC3)c21.O=C(O)C(F)(F)F.O=C(O)C(F)(F)F (stereo unspecified)", "DATA_VALUE": "-24.31%"}
{"COMPOUND": "CS(=O)(=O)CCC(=O)NC1(c2cccc(C(F)(F)F)c2)CCC1", "DATA_VALUE": "-20.78%"}
{"COMPOUND": "Cc1ccoc1C(=O)N1CCn2nnc(COc3cccnc3)c2C1.O=C(O)C(F)(F)F", "DATA_VALUE": "-27.69%"}

* * *

# Tested on: Mycobacterium tuberculosis
# EXPERIMENT_NOTES: Cornell M. t heat shock assay; note: in the data most compounds retested in dose-response had high values
# Assay type: functional, organism-based
# Design: dose or concentration left out as unconfirmed
About 950 (1.4%) of roughly 69,000 compounds showed an effect of 50% or more. This is one part of a sample in which strong results are shown more often than they occur.
Exam item: assign MET to entries whose Percent Effect is below -10% and NOT MET to entries at or above -10%. Note that a value of exactly -10% receives NOT MET.

{"COMPOUND": "O=C(O)C(F)(F)F.O=S(=O)(C1CC1)N1C[C@@H]2COC[C@]2(COc2ccccn2)C1", "CLASSIFICATION": "MET"}
{"COMPOUND": "CS(=O)(=O)Cc1ccc(Cl)cc1NCc1cccc(F)c1F", "CLASSIFICATION": "NOT MET"}
{"COMPOUND": "Cc1ccc(CN2CCC(O)(Cn3nc(-c4cccs4)oc3=O)CC2)o1.O=C(O)CC(O)(CC(=O)O)C(=O)O", "CLASSIFICATION": "NOT MET"}
{"COMPOUND": "CN(C)C1CCN(C(=O)c2cc(-c3ccn(C)n3)n3ccccc23)CC1.O=C(O)C(F)(F)F", "CLASSIFICATION": "NOT MET"}
{"COMPOUND": "CCOc1ccccc1CNC(=O)Cn1ccc2c(C)nn(C)c2c1=O", "CLASSIFICATION": "NOT MET"}
{"COMPOUND": "Cc1cccnc1N1CC2(CCN(Cc3cnn(C)c3)C2)C1.O=C(O)C(F)(F)F.O=C(O)C(F)(F)F", "CLASSIFICATION": "MET"}
{"COMPOUND": "CC(CS(C)(=O)=O)NCc1cc(Cl)ccc1F (stereo not given)", "CLASSIFICATION": "MET"}
{"COMPOUND": "CCn1c(C2CCCN2Cc2noc(C(C)(C)C)n2)nc2ccccc21 (stereo not given)", "CLASSIFICATION": "NOT MET"}
{"COMPOUND": "O=C(Nc1ccccc1)[C@H]1C[C@@H]2CN(S(=O)(=O)C3CC3)C[C@H]1O2", "CLASSIFICATION": "NOT MET"}
{"COMPOUND": "Cc1ccc(N2CCC3(CCN(C(=O)c4ccnnc4)CC3)CC2)nn1.O=C(O)C(F)(F)F", "CLASSIFICATION": "MET"}
{"COMPOUND": "COc1ccc(NC(=O)CCc2c(C)nc3cc(O)nn3c2C)cn1", "CLASSIFICATION": "NOT MET"}
{"COMPOUND": "O=C(O)C(F)(F)F.O=C(c1cscn1)N1CC[C@@H]2[C@@H]1CCN2CC1CCOCC1", "CLASSIFICATION": "NOT MET"}
{"COMPOUND": "CS(=O)(=O)Cc1ccc(Cl)cc1NCc1ccccc1F", "CLASSIFICATION": "NOT MET"}
{"COMPOUND": "CC(=O)N1CCN(Cc2ccncc2)CC2(CC(=O)N(C)C2)C1.O=C(O)C(F)(F)F.O=C(O)C(F)(F)F (stereo not given)", "CLASSIFICATION": "NOT MET"}
{"COMPOUND": "Cc1cccc(CN2CCc3nnc(CO)n3CC2)n1.O=C(O)C(F)(F)F", "CLASSIFICATION": "MET"}
{"COMPOUND": "O=C(Cc1cccc(F)c1F)NS(=O)(=O)c1ccc(Cl)cc1F", "CLASSIFICATION": "MET"}
{"COMPOUND": "COc1ccccc1Oc1ncccc1CNC(=O)[C@@H](C)NC(C)=O", "CLASSIFICATION": "NOT MET"}
{"COMPOUND": "CS(=O)(=O)Cc1ccccc1NCc1cc(Cl)ccc1Cl", "CLASSIFICATION": "MET"}
{"COMPOUND": "Cn1cc(-c2cnc(N3CCOCC3)nc2)cc1C(=O)NCCO.O=C(O)C(F)(F)F", "CLASSIFICATION": "NOT MET"}

* * *

# Tested on: Mycobacterium tuberculosis
# EXPERIMENT_NOTES: Cornell M. t heat shock assay; note: in the data most compounds retested in dose-response had high values
# Type: functional, organism-based
# Set-up: dose or concentration left out as unconfirmed
The campaign covered roughly 69,000 compounds. About 950 (1.4%) showed an effect of 50% or more. What follows is part of a selection rich in strong results, with near analogues and random picks from the rest.

{"COMPOUND": "Cc1cccc(CNC(=O)CC2CCN(Cc3ccccn3)CC2)n1", "Percent Effect (%)": -18.17}
{"COMPOUND": "Cc1cccc(CN2CC3(CCN(C(=O)N(C)C)CC3)OCC2=O)n1.O=C(O)C(F)(F)F", "Percent Effect (%)": -24.23}
{"COMPOUND": "CS(=O)(=O)N1CCOCC2(CCN(c3ccccn3)C2)C1.O=C(O)C(F)(F)F (configuration not stated)", "Percent Effect (%)": -2.08}
{"COMPOUND": "Cl.Cl.c1ccc(OC[C@@H]2CCC[C@@]23CNCCO3)nc1", "Percent Effect (%)": -6.285}
{"COMPOUND": "CN(C)CCn1c2c(ccc1=O)CCN(Cc1cnn(C)c1)CC2.O=C(O)C(F)(F)F.O=C(O)C(F)(F)F", "Percent Effect (%)": 10.2}
{"COMPOUND": "CN1[C@H]2CC[C@@H]1CN(c1nc(-c3ccncc3)nc3c1cnn3C)CC2", "Percent Effect (%)": -0.0303}
{"COMPOUND": "O=C(NCCc1ccccn1)C1(n2cnnn2)CCCCC1", "Percent Effect (%)": -1.374}
{"COMPOUND": "O=C(O)C(F)(F)F.O=C(O)C(F)(F)F.c1ccc(N2CCC3(COCCN(Cc4cccs4)C3)C2)nc1 (configuration not stated)", "Percent Effect (%)": 0.5206}
{"COMPOUND": "Cc1nn(-c2cc(Cl)cc(Cl)c2)c(C)c1CCC(=O)O", "Percent Effect (%)": 19.8}
{"COMPOUND": "Fc1ccccc1CC1CCN(Cc2ccccn2)CC1", "Percent Effect (%)": 54.97}
{"COMPOUND": "CC(C)CCN1C2(CCN(Cc3nccs3)C2)c2ccccc2S1(=O)=O.O=C(O)C(F)(F)F (configuration not stated)", "Percent Effect (%)": 47.98}
{"COMPOUND": "Cc1cccc(CN2CCC(NS(C)(=O)=O)CC2)n1", "Percent Effect (%)": 10.63}
{"COMPOUND": "Fc1ccc(COCC2CCN(Cc3ccccn3)CC2)cc1.O=C(O)C(=O)O", "Percent Effect (%)": -21.79}
{"COMPOUND": "C[C@H]1CN(c2ccccn2)C[C@@]12CCN(c1cccnc1)C2=O.O=C(O)C(F)(F)F.O=C(O)C(F)(F)F", "Percent Effect (%)": 11.35}
{"COMPOUND": "Cc1ccnc(NC(=O)C2(n3cnnn3)CCCCC2)c1", "Percent Effect (%)": -14.84}
{"COMPOUND": "CCn1nc(C)c(CN(C)S(=O)(=O)c2cnn(C)c2)c1C", "Percent Effect (%)": 0.2173}
{"COMPOUND": "COCCNC(=O)CCc1c(C)nn(-c2nc(C)c(C)c(=O)[nH]2)c1C", "Percent Effect (%)": 37.18}
{"COMPOUND": "CCn1c(CN(C)Cc2cnc(C)s2)nc2cc(F)ccc21", "Percent Effect (%)": -9.437}
{"COMPOUND": "Cc1nnc(N2CC[C@H]3C[C@H](C(=O)N(C)C)O[C@@H]3C2)s1.O=C(O)C(F)(F)F", "Percent Effect (%)": 7.027}
{"COMPOUND": "Cc1cc(=O)[nH]c(-n2nc(C)c(CCC(=O)Nc3nc(C)cs3)c2C)n1", "Percent Effect (%)": 95.61}
{"COMPOUND": "Cc1cccc(CN2CCC3(CC2)CN(c2cnn(C)c2)C(=O)CO3)n1.O=C(O)C(F)(F)F", "Percent Effect (%)": -22.92}
{"COMPOUND": "COc1ccc(C)nc1NC(=O)CCc1c(C)nn(C)c1C", "Percent Effect (%)": -18.22}
{"COMPOUND": "Cc1cccc(NC(=O)C2(n3cnnn3)CCCCC2)n1", "Percent Effect (%)": -23.83}
{"COMPOUND": "Cc1nn(C)c(C)c1S(=O)(=O)N1CC[C@H]2O[C@@H](C)C[C@H]2C1.O=C(O)C(F)(F)F", "Percent Effect (%)": 4.759}
{"COMPOUND": "Cc1cccc(CN2CCC(Cc3ccccc3F)CC2)n1", "Percent Effect (%)": 100.5}
{"COMPOUND": "CN(C)CCOCc1nnc2n1CCN(Cc1ccoc1)CC2.O=C(O)C(F)(F)F.O=C(O)C(F)(F)F", "Percent Effect (%)": -36.04}
{"COMPOUND": "CCN1CCC(CNCc2c[nH]nc2C(C)(C)C)C1.Cl (configuration not stated)", "Percent Effect (%)": 48.77}
{"COMPOUND": "CCn1c(CN(C)Cc2csc(C)n2)nc2cc(F)ccc21", "Percent Effect (%)": 69.38}
{"COMPOUND": "CCn1cc(CN(C)S(=O)(=O)c2cnn(CC)c2C)c(C)n1", "Percent Effect (%)": 95.67}
{"COMPOUND": "COc1ccc(CNC(C)Cn2cccn2)cc1OC (configuration not stated)", "Percent Effect (%)": -13.02}
{"COMPOUND": "CCn1cc(N2Cc3nc(N(C)C)ncc3C2=O)cn1", "Percent Effect (%)": 8.315}
{"COMPOUND": "Cc1nc2cc(O)nn2c(C)c1CCC(=O)NCCCC(C)C", "Percent Effect (%)": -0.01064}
{"COMPOUND": "CNC(=O)[C@H]1CO[C@H]2CCN(Cc3ccc4ccccc4n3)C[C@H]2C1.O=C(O)C(F)(F)F.O=C(O)C(F)(F)F", "Percent Effect (%)": -6.104}
{"COMPOUND": "O=C(CCc1ccco1)Nc1cccc(S(=O)(=O)C(F)F)c1", "Percent Effect (%)": 70}
{"COMPOUND": "Fc1ccccc1CC1CCN(Cc2cscn2)CC1", "Percent Effect (%)": -8.017}
{"COMPOUND": "Fc1ccccc1CC1CCN(Cc2nccs2)CC1", "Percent Effect (%)": 7.97}
{"COMPOUND": "COc1ccc(CNC(Cc2ccsc2)c2ncccc2C)cc1OC (configuration not stated)", "Percent Effect (%)": 96.19}
{"COMPOUND": "CCn1ncc2c1C(COC)N(C(=O)c1cscn1)CC2.O=C(O)C(F)(F)F (configuration not stated)", "Percent Effect (%)": -5.863}
{"COMPOUND": "CNC(=O)[C@H]1C[C@@H]2CCN(Cc3ccncc3)C[C@H]2O1.O=C(O)C(F)(F)F.O=C(O)C(F)(F)F", "Percent Effect (%)": -3.411}
{"COMPOUND": "Cc1ccc(Nc2nccc(C3CCN(C(=O)CN)C3)n2)nc1.Cl (configuration not stated)", "Percent Effect (%)": -1.968}
{"COMPOUND": "CCc1ccc(CN(C)Cc2nc(COc3ccccc3)no2)nc1", "Percent Effect (%)": 62.03}
{"COMPOUND": "CCc1ccc(CN(C)Cc2nc(-c3cnccn3)no2)nc1", "Percent Effect (%)": 20.61}
